# Measurement Target: Peroxisome proliferator-activated receptor gamma (Homo sapiens)
# Method Description: In vitro effective concentration against human peroxisome proliferator activated receptor gamma/Gal4 in cell-based transactivation assay
pEC50: −log10 of the molar value.
Measured Parameter: pEC50

CCCCCOc1ccccc1C(O)CC#CCCCC(=O)OC (centres undefined)
6.19
CCCCCOc1nc2ccccc2cc1C(O)CC=CCCCC(=O)O (centres undefined)
5.92
CCCCCOc1cc2ccccc2cc1C(O)CC=CCCCC(=O)O (centres undefined)
5.82

I = CCCCCOc1ncccc1C(O)CC#CCCCC(=O)OC (centres undefined)
II = CCCCCOc1nc2ccccc2cc1C(O)CCCCCC(=O)O (centres undefined)
III = CCCCCOc1ccccc1C(O)CC=CCCCC(=O)OC (centres undefined)
Asked: Ranking field: pEC50; order: falling. # format: label list in the order the request specifies
Given back: III, I, II
(III: 7.55, I: 6.26, II: 5.81)

---

# Measurement Target: Peroxisome proliferator-activated receptor alpha (Homo sapiens, UniProt Q07869)
# Sequence (Q07869 whole entry): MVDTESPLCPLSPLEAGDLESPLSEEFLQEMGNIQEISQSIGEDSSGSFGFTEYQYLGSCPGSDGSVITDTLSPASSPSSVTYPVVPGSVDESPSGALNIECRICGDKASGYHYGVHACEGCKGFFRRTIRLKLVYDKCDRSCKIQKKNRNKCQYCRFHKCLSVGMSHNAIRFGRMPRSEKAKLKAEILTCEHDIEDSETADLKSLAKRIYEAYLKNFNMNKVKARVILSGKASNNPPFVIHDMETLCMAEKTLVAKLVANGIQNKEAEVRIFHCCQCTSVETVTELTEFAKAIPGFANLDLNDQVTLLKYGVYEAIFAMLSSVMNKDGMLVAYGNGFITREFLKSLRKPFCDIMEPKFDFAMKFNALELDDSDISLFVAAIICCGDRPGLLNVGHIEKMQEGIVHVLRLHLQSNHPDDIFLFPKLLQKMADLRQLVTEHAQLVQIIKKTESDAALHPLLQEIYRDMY
# Method Description: In vitro effective concentration against human peroxisome proliferator activated receptor alpha/Gal4 in transactivation assay
Measured Parameter: EC50 (µM)

CCCCCOc1nc2ccccc2cc1C(O)CC=CCCCC(=O)OC (stereo not drawn)
1.3
CCCCCOc1nc2ccccc2cc1C(O)CC#CCCCC(=O)OC (stereo not drawn)
0.262
CCCCCOc1cc2ccccc2cc1C(O)CC#CCCCC(=O)OC (stereo not drawn)
1.14
CCCCCOc1cc2ccccc2cc1C(O)C/C=C/CCCC(=O)OC (stereo not drawn)
1.45
CCCCCOc1nc2ccccc2cc1C(O)CC=CCCCC(=O)O (stereo not drawn)
1.09

1 = CCCCCOc1ncccc1C(O)CC#CCCCC(=O)OC (stereo not drawn)
2 = CCCCCOc1nc2ccccc2cc1C(O)CC#CCCCC(=O)O (stereo not drawn)
Asked: Which entry has a larger number for EC50, 1 or 2 ? Your answer should be the label attached to the chosen record.
Given back: 1
(1: 1.63 µM, 2: 0.114 µM)

1 = CCCCCOc1nc2ccccc2cc1C(O)CCCCCC(=O)O (stereo not drawn)
2 = CCCCCOc1ccccc1C(O)CC#CCCCC(=O)OC (stereo not drawn)
Asked: Which entry has a larger number for EC50, 1 or 2 ? Your answer should be the label attached to the chosen record.
Given back: 1
(1: 1.4 µM, 2: 0.173 µM)

---

# Measurement Target: Peroxisome proliferator-activated receptor gamma (Homo sapiens)
pKi: −log10 of the molar value.
Measured Parameter: pKi

Guide cases for pKi, answers given:
CCCCCOc1ccccc1C(O)CCCCCCC(=O)OC (centres undefined)
6.29
CCCCCOc1cc2ccccc2cc1C(O)CCCCCCC(=O)O (centres undefined)
6.01
CCCCCOc1nc2ccccc2cc1C(O)CC=CCCCC(=O)OC (centres undefined)
5.88

1 = CCCCCOc1nc2ccccc2cc1C(O)CCCCCC(=O)O (centres undefined)
2 = CCCCCOc1ccccc1C(O)CCCCCCC(=O)O (centres undefined)
Asked: Please indicate which has the smaller reported pKi: 1 , or 2 . Your answer should be the label attached to the chosen record.
Given back: 2
(2: 5.17, 1: 5.54)

P = CCCCCOc1cc2ccccc2cc1C(O)CC#CCCCC(=O)O (centres undefined)
Q = CCCCCOc1cc2ccccc2cc1C(O)C/C=C/CCCC(=O)OC (centres undefined)
Asked: Which entry has a larger number for pKi, P or Q ? Your answer should be the label attached to the chosen record.
Given back: Q
(Q: 6.14, P: 5.36)

P = CCCCCOc1nc2ccccc2cc1C(O)CC#CCCCC(=O)O (centres undefined)
Q = CCCCCOc1ccccc1C(O)CC=CCCCC(=O)OC (centres undefined)
Asked: Which entry has a larger number for pKi, P or Q ? Your answer should be the label attached to the chosen record.
Given back: P
(P: 6.02, Q: 5.42)

---

# EC50 per record follows
# Measurement Target: Peroxisome proliferator-activated receptor gamma (Homo sapiens, UniProt P37231)
# Sequence (P37231 whole entry): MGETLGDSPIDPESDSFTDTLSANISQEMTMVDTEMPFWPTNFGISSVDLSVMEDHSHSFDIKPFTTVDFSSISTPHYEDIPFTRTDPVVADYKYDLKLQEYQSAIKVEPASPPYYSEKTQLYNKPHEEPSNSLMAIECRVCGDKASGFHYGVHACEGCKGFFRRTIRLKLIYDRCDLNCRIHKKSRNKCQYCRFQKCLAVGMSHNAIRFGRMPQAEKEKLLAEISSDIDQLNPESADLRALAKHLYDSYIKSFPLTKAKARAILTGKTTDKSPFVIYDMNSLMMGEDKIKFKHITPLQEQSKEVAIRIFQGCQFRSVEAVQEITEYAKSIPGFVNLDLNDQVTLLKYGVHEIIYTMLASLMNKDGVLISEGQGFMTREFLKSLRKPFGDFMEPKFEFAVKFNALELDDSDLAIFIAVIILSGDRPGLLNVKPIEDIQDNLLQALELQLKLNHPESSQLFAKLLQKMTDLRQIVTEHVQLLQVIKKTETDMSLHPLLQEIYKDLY
# Method Description: In vitro effective concentration against human peroxisome proliferator activated receptor gamma/Gal4 in cell-based transactivation assay

CCCCCOc1ncccc1C(O)CC#CCCCC(=O)O (stereo not drawn)
> 10 µM
CCCCCOc1nc2ccccc2cc1C(O)CC#CCCCC(=O)O (stereo not drawn)
0.617 µM
CCCCCOc1cc2ccccc2cc1C(O)C/C=C/CCCC(=O)OC (stereo not drawn)
> 10 µM
CCCCCOc1cc2ccccc2cc1C(O)CCCCCCCC(=O)OC (stereo not drawn)
1.36 µM
CCCCCOc1ncccc1C(O)CCCCCCC(=O)O (stereo not drawn)
> 10 µM

Asked: Look up EC50 for this molecule: CCCCCOc1ncccc1C(O)CCCCCCC(=O)OC (stereo not drawn)
Given back: > 10 µM

Asked: Further, for CCCCCOc1ccccc1C(O)CCCCCCC(=O)O (stereo not drawn) ?
Given back: > 10 µM

---

# Measurement Target: Peroxisome proliferator-activated receptor alpha (Homo sapiens)
# Method Description: In vitro effective concentration against human peroxisome proliferator activated receptor alpha/Gal4 in transactivation assay
Measured Parameter: EC50

Guide cases for EC50, answers given:
CCCCCOc1ncccc1C(O)CCCCCCC(=O)OC (centres undefined)
> 10 µM
CCCCCOc1ncccc1C(O)CCCCCCC(=O)O (centres undefined)
> 10 µM
CCCCCOc1ccccc1C(O)CC#CCCCC(=O)O (centres undefined)
> 10 µM
CCCCCOc1ccccc1C(O)CCCCCCC(=O)OC (centres undefined)
> 10 µM
CCCCCOc1cc2ccccc2cc1C(O)CC=CCCCC(=O)O (centres undefined)
1.19 µM
CCCCCOc1nc2ccccc2cc1C(O)CCCCCCCC(=O)OC (centres undefined)
> 10 µM
CCCCCOc1ncccc1C(O)CC#CCCCC(=O)O (centres undefined)
1.54 µM
CCCCCOc1cc2ccccc2cc1C(O)CCCCCCCC(=O)OC (centres undefined)
1.53 µM

Asked: Look up EC50 for this molecule: CCCCCOc1ccccc1C(O)CC=CCCCC(=O)OC (centres undefined)
Given back: > 10 µM

Asked: Further, for CCCCCOc1ncccc1C(O)C/C=C/CCCC(=O)OC (centres undefined) ?
Given back: > 10 µM

Asked: Further, for CCCCCOc1ncccc1C(O)C/C=C/CCCC(=O)O (centres undefined) ?
Given back: > 10 µM

Asked: Further, for CCCCCOc1ccccc1C(O)CC=CCCCC(=O)O (centres undefined) ?
Given back: > 10 µM

Asked: Further, for CCCCCOc1cc2ccccc2cc1C(O)CCCCCCC(=O)O (centres undefined) ?
Given back: 1.48 µM

Asked: Further, for CCCCCOc1ccccc1C(O)CCCCCCC(=O)O (centres undefined) ?
Given back: > 10 µM

---

Listed here: compounds with reported Ki for Peroxisome proliferator-activated receptor gamma (Homo sapiens, UniProt P37231).

CCCCCOc1nc2ccccc2cc1C(O)CCCCCCCC(=O)OC (stereo not given)
> 10 µM
CCCCCOc1ccccc1C(O)CC#CCCCC(=O)OC (stereo not given)
1.05 µM
CCCCCOc1ncccc1C(O)C/C=C/CCCC(=O)O (stereo not given)
> 10 µM

Now turn to the next compound.
Asked: Look up Ki for this compound: CCCCCOc1cc2ccccc2cc1C(O)CC=CCCCC(=O)O (stereo not given)
Given back: 1.03 µM
